Test system: DMS-114
test-details: NCI tumour cell line growth inhibition, 48 h
Active and inactive are the calls of the source. No stated cut-off is given here; in the data, active = GI50 up to about 1.1 µM and inactive = higher.
Below is a list of entries, each paired with its recorded GI50 value.

The cases that follow already have their GI50 on record.
molecule: NNC(=O)/C(=C/c1cccc([N+](=O)[O-])c1)NC(=O)c1ccccc1
GI50: > 100 µM (inactive)
//
molecule: CSc1cc(C(C)(C)C)ccc1C(O)c1ccc(C(C)(C)C)cc1SC
GI50: 7.69 µM (inactive)
//
molecule: O=C1C(=O)N(C(=O)c2ccc(Cl)c(Cl)c2)c2ccccc21
GI50: > 100 µM (inactive)
//
molecule: Cn1c(=O)c(C(c2ccccc2)c2c(O)c3ccccc3n(C)c2=O)c(O)c2ccccc21
GI50: > 100 µM (inactive)

Shift focus to the following entry.
Consider the molecule CC(=O)OC1C/C(C)=C/CCC(C)/C=C/C2(C)CCC(C(C)(C)O)C12 (stereo not given) . State its measured GI50. 34.6 µM (inactive)

====

Test system: SNB-19
test-details: NCI tumour cell line growth inhibition, 48 h
The source made the active and inactive calls. Cut-off read from the data, not from the text of the source: active = GI50 up to about 1.1 µM and inactive = higher.
Would you mind answering with one of these outcomes? T = active, F = inactive

See these solved cases before continuing.
compound: CC(=O)Nc1ccc(/C=c2\sc3nnc(/C=C/c4ccccc4)n3c2=O)cc1
assigned-label: F
//
compound: O=[N+]([O-])c1ccc(O)c(/C=N/NC(=S)N2CCCCC2)c1
assigned-label: F
//
compound: CC(C)CCCC(C)[C@H]1CCC2[C@H]3C(CC[C@@]21C)[C@@]1(C)CCC=C[C@]12C[C@@H]2[C@@H]3O (stereo not given in full)
assigned-label: F
//
compound: CCOC(=O)c1cc2cc(CSc3ccccc3)ccc2oc1=O
assigned-label: F

Hi, sorry to bother you, what did the test record for "COc1c(-c2nc3ccc(N4CCN(C)CC4)cc3[nH]2)cc(OC)c2[nH]c(COC(C)=O)nc12" ? F

Which result was noted for this compound in the test: COc1cc(C2OC[C@@H]3C(=O)OC[C@H]23)cc(O)c1OC (stereo not given in full) F

# lookup: test call for "CC(=O)O[C@H]1C(=O)[C@@]2(C)[C@H]([C@H](OC(=O)c3ccccc3)[C@]3(O)C[C@H](OC(=O)[C@H](O)[C@@H](NC(=O)c4ccc(N(C)C)cc4)c4ccccc4)C(C)=C1C3(C)C)[C@]1(OC(C)=O)CO[C@@H]1C[C@@H]2O" T

In this assay, the call recorded for C=C1CC(Cn2ccc(=O)[nH]c2=O)(c2ccc(-c3ccccc3)cc2)OC1=O (stereo not given) was what? F

Please let me know the test result on file for C=CCC1=CC2(OC)C(=O)C(OC)(OC)C1C1C(OC)(OC)C(=O)C(OC)=CC12CC=C (stereo not given) . F

Could you check what this test reported for "Cc1ccc(/C=C/C(=O)C(C)C)cc1" ? F

What classification did NC(=S)NNCC(=O)CC(O)(C(F)(F)F)C(F)(F)Cl (stereo not given) end up with in this test? F

I'd appreciate the recorded outcome for "NS(=O)(=O)c1nnc(NC(=O)/C=C/C(=O)O)s1" from this test. F

Hi team, can someone confirm the assay call for CCOC(=O)C(=O)Nc1c(CC)cccc1C(C)CC (stereo not given) ? F

State the result this test recorded for "O=C(c1ccco1)N(C(=S)OC12CC3CC(CC(C3)C1)C2)c1ccccc1" . F

Lab log entry: "Cc1cc(C)c(-n2[nH]c(=O)n(C)c2=O)c(C)c1" — outcome as called in the assay? F

====

Test system: M14
test-details: NCI tumour cell line growth inhibition, 48 h
Calls of active or inactive are those of the source. Cut-off read from the data, not from the text of the source: active = GI50 up to about 1.1 µM and inactive = higher.
parameter-measured: GI50

molecule: CCOC(=O)C1=C(C)N(NC(=O)Nc2ccccc2)C2(N)N(NC(=O)Nc3ccccc3)C(C)=C(C(=O)OCC)C12C(=O)OCC (configuration not stated)
GI50: 33.2 µM (inactive)

Provide measured GI50 value, entry: "COc1c(OC)c(OC)c2c(c1OC)c(=O)c1ccccc1n2C" > 100 µM (inactive)

Consider the molecule "CC(=O)c1cccc(Nc2nc3ccccc3c3occc23)c1" . State its measured GI50. 35.2 µM (inactive)

====

Overview of reported GI50 across a group of compounds:
Test system: OVCAR-8
test-details: NCI tumour cell line growth inhibition, 48 h
Activity calls are given as the source filed them. Cut-off read from the data, not from the text of the source: active = GI50 up to about 1.1 µM and inactive = higher.

Use these answered entries as a reference point.
compound: CN(C)CCNc1nc(-c2cccs2)cc(-c2cccs2)n1
experimental-target: OVCAR-8
readout-value: 9.84 µM (inactive)

compound: NNC(=S)N/N=C(\CC1OC(=O)c2ccccc21)c1ccccc1O (stereo unspecified)
experimental-target: OVCAR-8
readout-value: 30.8 µM (inactive)

compound: O=C1OC(Cl)C(N=P(c2ccccc2)(c2ccccc2)c2ccccc2)=C1Cl (stereo unspecified)
experimental-target: OVCAR-8
readout-value: > 100 µM (inactive)

compound: O=c1c2ccccc2nc(N/N=C/c2ccc([N+](=O)[O-])cc2)n1-c1ccccc1
experimental-target: OVCAR-8
readout-value: 37.8 µM (inactive)

compound: O=c1c2ccccc2c(=O)n2n1CC=CC2
experimental-target: OVCAR-8
readout-value: > 100 µM (inactive)

Query GI50 for "Cc1cccc2cc3cccc(C(=O)NCCN(C)C)c3nc12" 0.0925 µM (active)

Report GI50 for "CC(C)(C)CC(C)(C)c1cc2c(O)c(c1)Cc1cc(C(C)(C)CC(C)(C)C)cc(c1O)Cc1cc(C(C)(C)CC(C)(C)C)cc(c1O)Cc1cc(C(C)(C)CC(C)(C)C)cc(c1O)C2" > 100 µM (inactive)

====

Tested on: OVCAR-5
test-details: NCI tumour cell line growth inhibition, 48 h
Activity calls are given as the source filed them. No stated cut-off is given here; in the data, active = GI50 up to about 1.1 µM and inactive = higher.
Tick one outcome: active, inactive

Before answering, review these 6 worked examples.
molecule: [N-]=[N+]=NC1(Cc2ccccc2)C(=O)c2cccc3c2N(CCC3)C1=O (centres undefined)
assigned-label: inactive

molecule: CC(C)(C)N(Cc1ccoc1)C(=O)/C=C\[S+]([O-])c1ccccc1 (centres undefined)
assigned-label: inactive

molecule: O=C(c1ccco1)N(C(=S)OC12CC3CC(CC(C3)C1)C2)c1ccccc1
assigned-label: inactive

molecule: C#CCN(N=O)C(=O)NCCCCC(NC(C)=O)C(=O)NCc1ccccc1 (centres undefined)
assigned-label: inactive

molecule: CN(/N=C/c1ccc(Cl)cc1)C1=NCCCCN1
assigned-label: inactive

molecule: O=C(O)CN1CCN2CCCCCN(CC1)CCN(CC(=O)O)CC2
assigned-label: inactive

We next turn to a different molecule, shown below.
In this assay, the call recorded for "Cc1ccc(/C=C/C(=O)c2ccc(Cl)c(Cl)c2)cc1" was what? inactive

====

Test system: NCI-H226
test-details: NCI tumour cell line growth inhibition, 48 h
Calls of active or inactive are those of the source. Rule as the data show it: active = GI50 up to about 1.1 µM and inactive = higher.
Allowed answers: 1 = active, -1 = inactive

molecule: CCCCCCCCNC(=S)N/C=C1\C(=O)Oc2ccccc2C1=O
assigned-label: -1
--
molecule: CC(C)c1cccc(=O)c(O)c1
assigned-label: -1
--
molecule: CCn1c2ccccc2c2ccc3c(c21)C(=O)c1ccccc1C3=O
assigned-label: -1
--
molecule: C/C(=N\NC(=S)N1CCN(c2ccccn2)CC1)c1nccs1
assigned-label: 1
--
molecule: Nc1nc(Nc2ccccc2)sc1C(=O)c1ccco1
assigned-label: -1
--
molecule: CC1=C2C(=O)OCC23C=COC3(C)O1 (stereo not given)
assigned-label: -1
--
molecule: CC(=O)O[C@@H]1[C@H](OC2CCCCC2(c2ccccc2)c2ccccc2)O[N+]([O-])=CC12CCCCC2 (stereo not given in full)
assigned-label: -1
--
molecule: Cc1cccc2cc3cccc(C(=O)NCCN(C)C)c3nc12
assigned-label: 1

What call does the record list for N=C1N(c2ccccc2)C(=O)C23CCCC2C13N1CCOCC1 (stereo not given) ? -1

For "CN(C)c1ncnc2c1Cc1ccccc1C(=O)N2C" , which call appears in the assay record? -1

Hi, do you know how "CCCCOc1ccc2c(c1)CC[C@@H]1[C@@H]2CC[C@]2(C)C(=O)N(CCCC)C(=O)C[C@@H]12" came out in this test? -1

What is the recorded call for this molecule in the test? NNC(=S)N/N=C(\CC1OC(=O)c2ccccc21)c1ccccc1O (stereo not given) -1

====

Tested on: TK-10
test-details: NCI tumour cell line growth inhibition, 48 h
Activity calls are given as the source filed them. Rule as the data show it: active = GI50 up to about 1.1 µM and inactive = higher.
parameter-measured: GI50

Examples from the recorded data:
molecule: COC(=O)CC1NC(=O)C1C1(C)OCCO1 (stereo unspecified)
GI50: > 100 µM (inactive)
--
molecule: NC(=S)N/N=C(\Cc1nc2ccc(Cl)cc2nc1O)C(=O)Nc1ccc(Cl)cc1
GI50: > 100 µM (inactive)
--
molecule: O=C(NCCO)Nc1c(C(F)(F)F)cc(-c2ccccc2)[nH]c1=O
GI50: > 100 µM (inactive)
--
molecule: CC(C)[Si](OCC1CC(C#N)OC(C)(C)O1)(C(C)C)C(C)C (stereo unspecified)
GI50: 39.5 µM (inactive)
--
molecule: C[N+](C)([O-])C12CC3CC(CC(C3)C1)C2
GI50: 20.9 µM (inactive)

Provide only the value of recorded GI50 for "NC(=O)NCc1c(C(N)=O)ncn1Cc1ccccc1" > 100 µM (inactive)
